system: SN12C renal; assay: NCI tumour cell line growth inhibition, 48 h

compound | experimental target | TGI
CCOC(OCC)C(CC)[Se]c1ccccc1 (stereo not given) | SN12C renal | > 100 µM
C=CCOCn1ccc(N)nc1=O | SN12C renal | > 100 µM
O=c1c2cc(I)ccc2nc(SCc2nnco2)n1Cc1ccccc1 | SN12C renal | > 100 µM
CN(C)C=NCC(O)c1ccccc1 (stereo not given) | SN12C renal | > 100 µM
COC1C(CO)OC(n2c3c(Cl)cccc3c3c4c(c5c6cccc(Cl)c6[nH]c5c32)C(=O)NC4=O)C(O)C1O (stereo not given) | SN12C renal | > 29.2 µM
